Where do the numbers come from? From ChEMBL document CHEMBL3507680.

# measurement_protocol: Human HepG2 cell viability assay in 384 well format
# Type: toxicity, cell-based
# Design: dose 125 nL, time 70.5 hour; concentration not given beside the values
# protocol_conditions: HepG2 cells, read-out: Inhibition
property_measured: cytotoxicity at 70.5 h (%)
API: value field is a number in %; no unit string.

-- ask Respond only with cytotoxicity at 70.5 h recorded for `Cc1ccc(C2(O)CCN(C(=O)c3sccc3S(N)(=O)=O)CC2)nc1`
-- reply -4.05

-- ask Respond only with cytotoxicity at 70.5 h recorded for CS(=O)(=O)c1cccc(C(=O)NCC2Cc3ccccc3O2)c1 (stereo unspecified)
-- reply -5.79

-- ask Respond only with cytotoxicity at 70.5 h recorded for `Cc1ncc(CN2CCN(C(=O)N(C)C)[C@@H]3CS(=O)(=O)C[C@@H]32)cn1`
-- reply -26.5

-- ask Respond only with cytotoxicity at 70.5 h recorded for CC(Cn1cc(Br)cn1)C(=O)Nc1ccn(C)n1 (stereo unspecified)
-- reply 7.88

-- ask Respond only with cytotoxicity at 70.5 h recorded for Cc1cnn(CC2CCN(CC(O)c3ccc(F)cc3)CC2)c1 (stereo unspecified)
-- reply -0.648

-- ask Respond only with cytotoxicity at 70.5 h recorded for `CCn1cnnc1CNC(=O)N1CCN(c2cccs2)CC1`
-- reply 25.1

====

Would you kindly list cytotoxicity at 70.5 h for each of these molecules?
# measurement_protocol: Human HepG2 cell viability assay in 384 well format
# Assay type: toxicity, cell-based
# Set-up: dose 125 nL, time 70.5 hour; concentration not given beside the values
# protocol_conditions: HepG2 cells, read-out: Inhibition
API: value field is a number in %; no unit string.

-- ask Respond only with cytotoxicity at 70.5 h recorded for CCCc1cc(CNC(=O)C2CCOc3ccccc3C2)on1 (stereo unspecified)
-- reply 2.98

-- ask Respond only with cytotoxicity at 70.5 h recorded for `O=C(c1coc2ccccc12)N1CCCC1`
-- reply -9.29

-- ask Respond only with cytotoxicity at 70.5 h recorded for `CCSCCNC(=O)c1cnc(-c2ccccc2)nc1O`
-- reply 7.82

-- ask Respond only with cytotoxicity at 70.5 h recorded for CCOc1ccc(CSC(C)c2nc(C)no2)nc1 (stereo unspecified)
-- reply -6.64

-- ask Respond only with cytotoxicity at 70.5 h recorded for CC(=O)N1CCCC(c2ccnc(Nc3cnccn3)c2)C1 (stereo unspecified)
-- reply -1.19

-- ask Respond only with cytotoxicity at 70.5 h recorded for `Cc1cc(NC2CCN(c3ccc(F)cc3)CC2)n2nc(C)cc2n1`
-- reply -1.64

-- ask Respond only with cytotoxicity at 70.5 h recorded for `COCCOCC(=O)Nc1nc2c(OC)cc(F)cc2s1`
-- reply -8.97

-- ask Respond only with cytotoxicity at 70.5 h recorded for `CN1CCN(C(=O)NCCc2ccc(F)cc2)[C@H]2CS(=O)(=O)C[C@H]21`
-- reply -2.69

-- ask Respond only with cytotoxicity at 70.5 h recorded for `O=C(Nc1cccnc1)[C@@H]1CCO[C@@H]2CCN(Cc3cccnc3)C[C@@H]21`
-- reply -22.1

-- ask Respond only with cytotoxicity at 70.5 h recorded for CC(C)N1CCCC2(CCN(Cc3noc(C4CCCC4)n3)C2)C1=O (stereo unspecified)
-- reply 11

-- ask Respond only with cytotoxicity at 70.5 h recorded for CCN1CC(C(=O)N2CCN(c3nsc4ccccc34)CC2)CCC1=O (stereo unspecified)
-- reply 19.6
